System: THRa homodimer (NR concentration 90 nM)
Assay: PBM binding z-score (relative to random genomic background probes); higher = stronger binding; sequences stand for … in GC…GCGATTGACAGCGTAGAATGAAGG
measured quantity: PBM binding z-score

Please review the entries below; each comes with its answer.
{"record sequence": "GCTCGGAGGACAAGTTCAGAGCTTTGTCCGTAGA", "target": "THRa homodimer (NR concentration 90 nM)", "result": -0.148}
{"record sequence": "CCAGACAGGTGAGAAGGTATCTCAGCCTCGATTA", "target": "THRa homodimer (NR concentration 90 nM)", "result": -0.183}

Read the entry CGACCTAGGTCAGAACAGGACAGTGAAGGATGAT and write its reported PBM binding z-score.
0.505

Read the entry CCAACTAGGTCAAGGTCAAAGTCGGTTTGTGCCA and write its reported PBM binding z-score.
4.25

Read the entry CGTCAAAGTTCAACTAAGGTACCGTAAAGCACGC and write its reported PBM binding z-score.
0.671

Read the entry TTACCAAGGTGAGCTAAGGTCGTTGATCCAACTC and write its reported PBM binding z-score.
2.41
